Cited source for all entries: patent US20160297889A1

Target: T1, CAPRIN-1 protein expressed on the membrane surface of human cancer cells (human, UniProt Q14444 2-709)
T1 sequence (looked up): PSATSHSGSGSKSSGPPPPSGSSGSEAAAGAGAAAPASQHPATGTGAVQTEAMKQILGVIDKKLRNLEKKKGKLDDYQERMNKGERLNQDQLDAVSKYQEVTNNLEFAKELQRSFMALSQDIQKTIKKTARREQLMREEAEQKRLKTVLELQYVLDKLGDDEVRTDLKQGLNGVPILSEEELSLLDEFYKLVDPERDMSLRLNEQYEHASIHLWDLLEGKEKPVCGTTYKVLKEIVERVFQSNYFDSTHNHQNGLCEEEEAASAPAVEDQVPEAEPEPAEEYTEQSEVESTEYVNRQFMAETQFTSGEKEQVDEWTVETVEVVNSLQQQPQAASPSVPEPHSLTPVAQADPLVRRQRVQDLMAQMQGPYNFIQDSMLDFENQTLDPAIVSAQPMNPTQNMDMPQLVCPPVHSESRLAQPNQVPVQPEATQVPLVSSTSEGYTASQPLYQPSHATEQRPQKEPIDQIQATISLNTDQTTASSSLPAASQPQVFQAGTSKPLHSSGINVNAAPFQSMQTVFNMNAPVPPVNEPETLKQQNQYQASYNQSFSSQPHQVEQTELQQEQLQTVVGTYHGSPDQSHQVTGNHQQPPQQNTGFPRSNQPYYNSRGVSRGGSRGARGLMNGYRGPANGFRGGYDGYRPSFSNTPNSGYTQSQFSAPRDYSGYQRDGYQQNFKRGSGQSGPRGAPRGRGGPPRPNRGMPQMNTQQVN
Test: cell-based or functional assay
property: ADCC cytotoxic activity (51Cr release) on A-673

Data request: What value of measured ADCC cytotoxic activity (51Cr release) on A-673 is listed for humanized antibody #9 (antibody, V domains shown) VH: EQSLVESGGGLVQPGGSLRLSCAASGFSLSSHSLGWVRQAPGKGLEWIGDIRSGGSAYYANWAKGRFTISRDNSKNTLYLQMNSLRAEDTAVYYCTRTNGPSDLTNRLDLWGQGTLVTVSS VL: DIVLTQSPSSLSASVGDRVTINCQASQSLYNNENLAWFQQKPGKVPKRLIYGASTLASGVSSRFSGSGSGTEFTLTISSLQCEDFAIYYCLGEFSCGSADCFAFGGGTKVEIK ?
Data returned: ≥ 40%

Data request: What value of measured ADCC cytotoxic activity (51Cr release) on A-673 is listed for humanized antibody #3 (antibody, V domains shown) VH: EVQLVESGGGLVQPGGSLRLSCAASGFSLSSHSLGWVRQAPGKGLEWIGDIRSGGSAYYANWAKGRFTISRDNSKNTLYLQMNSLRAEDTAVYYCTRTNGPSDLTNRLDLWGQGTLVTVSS VL: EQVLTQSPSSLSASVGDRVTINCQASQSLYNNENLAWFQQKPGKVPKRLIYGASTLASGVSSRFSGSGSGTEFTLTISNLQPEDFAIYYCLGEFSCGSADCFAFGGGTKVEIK ?
Data returned: ≥ 46%

Data request: What value of measured ADCC cytotoxic activity (51Cr release) on A-673 is listed for humanized antibody #5 (antibody, V domains shown) VH: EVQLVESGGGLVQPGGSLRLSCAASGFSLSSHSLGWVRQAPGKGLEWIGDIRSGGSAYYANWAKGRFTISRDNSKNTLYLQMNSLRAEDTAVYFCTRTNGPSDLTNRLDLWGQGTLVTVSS VL: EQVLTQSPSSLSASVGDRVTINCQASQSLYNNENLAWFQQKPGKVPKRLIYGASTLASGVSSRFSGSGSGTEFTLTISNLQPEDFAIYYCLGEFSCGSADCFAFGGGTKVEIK ?
Data returned: ≥ 46%

Data request: What value of measured ADCC cytotoxic activity (51Cr release) on A-673 is listed for humanized antibody #8 (antibody, V domains shown) VH: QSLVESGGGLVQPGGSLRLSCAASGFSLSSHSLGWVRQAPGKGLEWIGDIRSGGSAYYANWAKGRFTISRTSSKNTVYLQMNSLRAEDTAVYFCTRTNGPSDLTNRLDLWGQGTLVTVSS VL: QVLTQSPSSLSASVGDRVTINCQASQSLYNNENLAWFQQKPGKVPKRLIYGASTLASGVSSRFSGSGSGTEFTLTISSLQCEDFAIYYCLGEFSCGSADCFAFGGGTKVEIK ?
Data returned: ≥ 40%

Data request: What value of measured ADCC cytotoxic activity (51Cr release) on A-673 is listed for humanized antibody #10 (antibody, V domains shown) VH: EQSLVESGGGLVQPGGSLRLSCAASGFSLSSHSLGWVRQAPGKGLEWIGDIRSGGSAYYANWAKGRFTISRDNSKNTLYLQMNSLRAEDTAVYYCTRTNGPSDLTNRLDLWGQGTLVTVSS VL: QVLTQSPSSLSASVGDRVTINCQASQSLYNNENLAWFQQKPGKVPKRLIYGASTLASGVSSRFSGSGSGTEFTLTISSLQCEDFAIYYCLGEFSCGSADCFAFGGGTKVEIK ?
Data returned: ≥ 50%
